Entries and their TGI values follow.
test system: KM12 colon; test: NCI tumour cell line growth inhibition, 48 h
Reported endpoint: TGI

> print(dat)
                                   molecule  reported.endpoint    result
1       Cc1ccc2c(=O)c3cccc(CC(=O)O)c3oc2c1C                TGI  > 100 µM
2  O=C(O)C12C3CCCC1C2CC3 (configuration not stated)                TGI  > 100 µM
3                COC(=O)c1ccc(N=NN(C)CO)cc1                TGI  > 100 µM
4  COc1ccc(CN(CCc2c[nH]c3ccccc23)Cc2ccc(OC)cc2)cc1                TGI   13.9 µM
5        O=C(Cc1ccccc1)c1ccc2[nH]c(=O)oc2c1                TGI  > 100 µM
6                CCOC(CN=c1nc(N(C)C)ss1)OCC                TGI   38.9 µM
7                   C=CCOCn1ccc(=O)[nH]c1=O                TGI  > 100 µM

Measured values drawn from PubChem BioAssay (NCI) for this set.
